Target: T1, RBFOX1 RRM (Homo sapiens, UniProt Q9NWB1 109-208)
T1 sequence: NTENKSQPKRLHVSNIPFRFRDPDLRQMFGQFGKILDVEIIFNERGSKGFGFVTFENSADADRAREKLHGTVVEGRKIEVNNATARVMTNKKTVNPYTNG
Test: EMSA; HiTS-Eq, 1 nM pool, 10 min; buffer printed only for the single-RNA assays: 10 mM Tris pH 7.5, 150 mM NaCl, 3.4 mM EDTA, 0.001% NP-40, 30 C
Conditions: tags: His6 N-terminal (pET28a); label: 5' 32P
Whole data set: some 16,000 sequences, median “ka relative to ugcaugu” near 0.0091, cut for the highest 2% near 0.032. Only a selection was taken, and the highest values are over-represented in it overall.
ASSAY_METRIC: binding signal

[
  {
    "BINDER": "CUUGCCC (DNA:RNA) RNA: GGGAGACCGGAAUUCAGAUUGUCCCUUGCCCUUAAAUCCCGUCGUAGCCACCA DNA 1: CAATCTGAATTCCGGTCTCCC DNA 2: TGGTGGCTACGACGGGATT",
    "ASSAY_METRIC": "binding signal",
    "OBSERVED_MEASUREMENT": "0.00752 KA relative to UGCAUGU"
  }
]

For every item below, please supply its binding signal.
1. AGUGGCG (DNA:RNA) RNA: GGGAGACCGGAAUUCAGAUUGUCCAGUGGCGUUAAAUCCCGUCGUAGCCACCA DNA 1: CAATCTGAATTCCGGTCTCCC DNA 2: TGGTGGCTACGACGGGATT
2. UAAGUGG (DNA:RNA) RNA: GGGAGACCGGAAUUCAGAUUGUCCUAAGUGGUUAAAUCCCGUCGUAGCCACCA DNA 1: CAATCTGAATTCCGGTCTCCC DNA 2: TGGTGGCTACGACGGGATT

**Result**
0.0184 KA relative to UGCAUGU
0.00934 KA relative to UGCAUGU

**Query** May I ask what binding signal has been recorded for CGCCAUA (DNA:RNA) RNA: GGGAGACCGGAAUUCAGAUUGUCCCGCCAUAUUAAAUCCCGUCGUAGCCACCA DNA 1: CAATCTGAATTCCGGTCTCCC DNA 2: TGGTGGCTACGACGGGATT ?
**Result** 0.00265 KA relative to UGCAUGU
